meta.source: patent US20260258049A1

System: MHH-CALL-4
Experiment: Cytotoxicity assay (resazurin, 72 hours)
Format: cell-based, human
experimental endpoint: killing of MHH-CALL-4 cells / cytotoxicity, in words

These solved cases illustrate the format of a correct answer.
INSERT INTO measurements (molecule, result) VALUES
  ('CCS(=O)(=O)N1CC(CC#N)(n2cc(-c3nc(Nc4ccc(C(=O)NCCN5CCN(c6ccc7c(c6)C(=O)N(C6CCC(=O)NC6=O)C7=O)CC5)cc4)nc4[nH]ccc34)cn2)C1 (centres unmarked) [Compound 8]', 'intermediately effective'),
  ('CNCCCN1CCN(c2ccc3c(c2)C(=O)N(C2CCC(=O)NC2=O)C3=O)CC1 (centres unmarked) [Cmpd. no. 56]', 'intermediately effective'),
  ('CC(=O)NCCCNC(=O)COc1cccc2c1C(=O)N(C1CCC(=O)NC1=O)C2=O (centres unmarked) [Cmpd. no. 59]', 'relatively low activity'),
  ('CC(=O)NCCCNc1ccc2c(c1)C(=O)N(C1CCC(=O)NC1=O)C2=O (centres unmarked) [Cmpd. no. 53]', 'intermediately effective');

Entry CNCCCCNc1ccc2c(c1)C(=O)N(C1CCC(=O)NC1=O)C2=O (centres unmarked) [Cmpd. no. 80] has what killing of MHH-CALL-4 cells / cytotoxicity, in words? relatively low activity
